Consider the following pIC50 values measured on UniProt P10323.
Sequence (P10323 20-42 limits assumed): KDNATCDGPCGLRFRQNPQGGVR
Sequence (P10323 43-343 limits assumed): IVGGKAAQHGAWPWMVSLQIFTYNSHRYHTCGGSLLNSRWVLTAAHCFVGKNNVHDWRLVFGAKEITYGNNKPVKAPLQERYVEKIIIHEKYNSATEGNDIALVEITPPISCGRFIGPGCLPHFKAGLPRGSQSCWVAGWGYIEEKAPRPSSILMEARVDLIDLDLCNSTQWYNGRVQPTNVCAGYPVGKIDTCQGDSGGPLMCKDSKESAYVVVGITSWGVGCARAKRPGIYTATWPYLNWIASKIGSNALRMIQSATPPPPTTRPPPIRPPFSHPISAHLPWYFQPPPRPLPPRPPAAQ
pIC50: −log10 of the molar value.
Measured quantity: pIC50

item_smiles=COC(=O)Nc1nc2ccc(S(=O)(=O)NCc3ccc(Br)cc3)cc2[nH]1 observed_measurement=2.79
item_smiles=COC(=O)Nc1nc2ccc(S(=O)(=O)NCc3ccc(F)cc3)cc2[nH]1 observed_measurement=2.62
item_smiles=COC(=O)Nc1nc2ccc(S(=O)(=O)NCc3ccc(C)cc3)cc2[nH]1 observed_measurement=2.50
item_smiles=COC(=O)Nc1nc2ccc(S(=O)(=O)NCc3ccc(OC)c(OC)c3)cc2[nH]1 observed_measurement=1.94
item_smiles=COC(=O)Nc1nc2ccc(S(=O)(=O)NCc3ccc(OC)cc3)cc2[nH]1 observed_measurement=2.48
item_smiles=COC(=O)Nc1nc2ccc(S(=O)(=O)NCc3ccc(C(F)(F)F)cc3)cc2[nH]1 observed_measurement=1.97
item_smiles=COC(=O)Nc1nc2ccc(S(=O)(=O)N(C)Cc3ccccc3)cc2[nH]1 observed_measurement=2.90
item_smiles=COC(=O)Nc1nc2ccc(S(=O)(=O)NCc3cccc(F)c3)cc2[nH]1 observed_measurement=2.74
item_smiles=COC(=O)Nc1nc2ccc(S(=O)(=O)N(CCC(C)C)CCC(C)C)cc2[nH]1 observed_measurement=4.20
item_smiles=COC(=O)Nc1nc2ccc(S(=O)(=O)NCc3ccccc3OC)cc2[nH]1 observed_measurement=2.07

[I] COC(=O)Nc1nc2ccc(S(=O)(=O)NCc3ccc(F)cc3F)cc2[nH]1
[II] COC(=O)Nc1nc2ccc(S(=O)(=O)NCc3ccccc3F)cc2[nH]1
**Q:** Which value of pIC50 is smaller, the one for I or the one for II ? Give the label of your selection.
**A:** I
(I: 2.81, II: 3.51)

[P] CCCCCCNS(=O)(=O)c1ccc2nc(NC(=O)OC)[nH]c2c1
[Q] COC(=O)Nc1nc2ccc(S(=O)(=O)NCc3ccc(Cl)c(Cl)c3)cc2[nH]1
**Q:** Sorting by pIC50 in descending order, would P or Q appear first? Respond with the label that goes with your answer.
**A:** P
